Listed here: items and their measured % IA (intrinsic activity), cAMP production, HEK-rCRFR1 cells.
assayed_target: T1, rat CRF receptor, type 1 (rCRFR1) (rat, UniProt P35353 24-415)
T1 sequence (looked up): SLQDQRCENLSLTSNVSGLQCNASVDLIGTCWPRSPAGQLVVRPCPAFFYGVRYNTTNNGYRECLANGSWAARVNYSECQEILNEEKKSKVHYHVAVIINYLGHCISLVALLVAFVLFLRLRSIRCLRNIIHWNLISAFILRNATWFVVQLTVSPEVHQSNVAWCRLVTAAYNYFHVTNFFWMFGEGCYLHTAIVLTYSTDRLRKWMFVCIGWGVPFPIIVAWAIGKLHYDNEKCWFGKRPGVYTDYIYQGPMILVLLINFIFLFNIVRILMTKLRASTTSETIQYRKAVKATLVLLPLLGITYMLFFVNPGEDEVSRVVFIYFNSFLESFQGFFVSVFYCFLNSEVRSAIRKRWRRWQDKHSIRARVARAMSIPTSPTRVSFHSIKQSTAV
experiment_description: cell-based or functional assay
Positions of bridges follow the written chain, without caps; N, C: chain ends. Non-standard residues stand in square brackets, D forms with d. No end group written: not given here.
readout_kind: % IA (intrinsic activity), cAMP production, HEK-rCRFR1 cells

>>> result_value("[dF]HLLRTILELARTQSQRERAEQNRIIFDSV (ends and bridges not checked) [[DPhe^11]rUcn(11-40)]")
"0.07 relative, oCRF = 1.00"
>>> result_value("[dF]HLLRKMIEIEKQEKEKQQAANNRLLLDTI (not fully specified (C-terminus)) [antisauvagine-30, [DPhe^11, His^12]Svg(11-40)]")
"0.04 relative, oCRF = 1.00"
>>> result_value("[dF]HLLRTILELARTQSQREEAEKNRIIFDSV (lactam 19-22; ends not checked) [cyclo(29-32)[DPhe^11, Glu^29, Lys^32]rUcn(11-40)]")
"0.1 relative, oCRF = 1.00"
>>> result_value("[dL]ELLRKMIEIEKQEKEKQQAANNRLLLDTI (not fully specified (C-terminus), also called compound 13) [[DLeu^11]Svg(11-40)]")
"0.22 relative, oCRF = 1.00"
>>> result_value("[dF]ELLRTILELARTQSQRERAEQNRIIFDSV (ends and bridges not checked) [[DPhe^11, Glu^12]rUcn(11-40)]")
"0.22 relative, oCRF = 1.00"
>>> result_value("[dF]HLLREVLEMTKADQLAQQAHSNRKLLDIA (ends and bridges not checked) [[DPhe^12]oCRF(12-41)]")
"0.05 relative, oCRF = 1.00"
>>> result_value("[dL]ELLRTILELARTQSQRERAEQNRIIFDSV (ends and bridges not checked) [[DLeu^11, Glu^12]rUcn(11-40)]")
"0.23 relative, oCRF = 1.00"
